System: CAKI-1
Assay: NCI tumour cell line growth inhibition, 48 h
Activity calls are given as the source filed them. No stated cut-off is given here; in the data, active = GI50 up to about 1.1 µM and inactive = higher.
Form entry, call: pick from active, inactive

Completed entries (count: 8):
compound: O=c1[nH]c2cc3cccnc3c(Cl)c2nc1C(F)(F)F
label_class: inactive

compound: COc1cc([C@H]2c3[nH]c4ccccc4c3C[C@H]3COC(=O)N32)cc(OC)c1O
label_class: active

compound: CC1=C2C(=O)c3ccccc3C(=O)[C@H]2C[C@@H](N2CCCCCC2=O)O1
label_class: inactive

compound: COC(=O)/C=C(/C(=O)OC)c1c(C)c(C)c2c(C)cc(C)cc(C)c1-2
label_class: inactive

compound: CC1=C2[C@@H](c3ccccc3)C3C=CC2(c2ccccc23)N(C(=O)Nc2cccc3ccccc23)C1=O (stereo partly drawn)
label_class: inactive

compound: COc1cc2c(c3oc4c(O)cccc4c(=O)c13)CC(C(C)(O)CCl)O2 (stereo not drawn)
label_class: inactive

compound: CCOC(=O)/C(C#N)=C1\c2c([nH]c(=S)[nH]c2=O)Oc2ccc3ccccc3c21
label_class: inactive

compound: O=S(=O)(O)n1ccnc1
label_class: inactive

# ---- query compound ----
Hello, I am checking results. What call was entered for COc1cccc2c1OC(c1ccc(Cl)cc1)C([N+](=O)[O-])=C2 (stereo not drawn) ? inactive
